Entry source: paper PMC10745574

In this section we review reported pIC50 values for a set of compounds.
Tested on: pancreatic cancer (Panc-1) cell line
PROTOCOL_TEXT: Antiproliferative assay, Panc-1
CONDITION_SUMMARY: Homo sapiens, PANC-1, read-out: Antiproliferative Activity IC50 ± SEM, Panc-1
pIC50 is defined as minus the log10 of a concentration measured in mol/L.

{"columns": ["COMPOUND", "pIC50"],
 "data": [
  ["c1ccc(-c2csc(N/N=C3\\CCCc4ccccc43)n2)cc1 [Compound 9d]", 7.23],
  ["c1ccc(-c2csc(NN=C3c4ccccc4-c4ccccc43)n2)cc1 [Compound 9e]", 7.30]
]}

Please give the measured pIC50 for this compound: O=C1Nc2ccccc2/C1=N/Nc1nc(-c2ccccc2)cs1 [Compound 9f]
7.38

Consider the compound shown here: c1ccc(-c2csc(NN=C3CCCCCCC3)n2)cc1 [Compound 9c] What is its recorded pIC50?
7.46

Name the recorded pIC50 for CCOC(=O)/C=C1/S/C(=N/N=C2c3ccccc3-c3ccccc32)NC1=O [Compound 12e] .
7.40

Which pIC50 value is on record for CCOC(=O)/C=C1/S/C(=N/N=C2CCCC2)NC1=O [Compound 12a] ?
7.09

* * *

Measured GI50 by item
System: four human cancer cell lines (A-549, MCF-7, Panc-1, HT-29)
PROTOCOL_TEXT: Antiproliferative assay, average over four cancer cell lines
CONDITION_SUMMARY: Homo sapiens, read-out: Antiproliferative Activity, Average (GI50)
Write the answer as a number in µM, unit excluded.

{"columns": ["COMPOUND", "QUANTITY_NAME", "UNIT_NAME", "EXPERIMENTAL_VALUE"],
 "data": [
  ["CCOC(=O)/C=C1/S/C(=N/N=C2\\CCCc3ccccc32)NC1=O [Compound 12d]", "GI50", "µM", 0.038],
  ["c1ccc(-c2csc(NN=C3c4ccccc4-c4ccccc43)n2)cc1 [Compound 9e]", "GI50", "µM", 0.05],
  ["CCOC(=O)/C=C1/S/C(=N/N=C2CCCC2)NC1=O [Compound 12a]", "GI50", "µM", 0.084]
]}

Entry under review: CCOC(=O)/C=C1/S/C(=N/N=C2\C(=O)Nc3ccccc32)NC1=O [Compound 12f] . Reported GI50?
0.047

Value lookup for GI50; key = O=C1Nc2ccccc2/C1=N/Nc1nc(-c2ccccc2)cs1 [Compound 9f]
0.044

* * *

System: four human cancer cell lines (A-549, MCF-7, Panc-1, HT-29)
PROTOCOL_TEXT: Antiproliferative assay, average over four cancer cell lines
CONDITION_SUMMARY: Homo sapiens, read-out: Antiproliferative Activity, Average (GI50)
// values below are reported GI50
Expressed in nM, but write only the number.

{"columns": ["COMPOUND", "GI50 [nM]"],
 "data": [
  ["CCOC(=O)/C=C1/S/C(=N/N=C2CCCCC2)NC1=O [Compound 12b]", 67],
  ["c1ccc(-c2csc(N/N=C3\\CCCc4ccccc43)n2)cc1", 59]
]}

Item under review: CCOC(=O)/C=C1/S/C(=N/N=C2c3ccccc3-c3ccccc32)NC1=O [Compound 12e] . Reported GI50?
42

For c1ccc(-c2csc(NN=C3CCCCCCC3)n2)cc1 , what is its reported GI50?
35

Any idea what GI50 was measured for c1ccc(-c2csc(NN=C3CCCC3)n2)cc1 ?
78

* * *

Tested on: pancreatic cancer (Panc-1) cell line
PROTOCOL_TEXT: Antiproliferative assay, Panc-1
CONDITION_SUMMARY: Homo sapiens, PANC-1, read-out: Antiproliferative Activity IC50 ± SEM, Panc-1
// values below are reported IC50
Give the value in nM but do not write nM after it.

Record excerpt, results attached:
{"columns": ["COMPOUND", "QUANTITY_NAME", "EXPERIMENTAL_VALUE"],
 "data": [
  ["CCOC(=O)/C=C1/S/C(=N/N=C2\\CCCc3ccccc32)NC1=O [Compound 12d]", "IC50", 36],
  ["CCOC(=O)/C=C1/S/C(=N/N=C2CCCCC2)NC1=O [Compound 12b]", "IC50", 66],
  ["c1ccc(-c2csc(NN=C3CCCC3)n2)cc1", "IC50", 78],
  ["C#Cc1cccc(Nc2ncnc3cc(OCCOC)c(OCCOC)cc23)c1 [Erlotinib, reference compound]", "IC50", 30]
]}

Okay, now this compound:
# input compound: CCOC(=O)/C=C1/S/C(=N/N=C2\C(=O)Nc3ccccc32)NC1=O [Compound 12f] ; wanted: its IC50
46

* * *

TARGET: BRAF^V600E (Homo sapiens, UniProt P15056, V600E)
Construct: Mouse full-length GST-tagged BRAFV600E; GST
Sequence (P15056 2-766 V600E limits assumed): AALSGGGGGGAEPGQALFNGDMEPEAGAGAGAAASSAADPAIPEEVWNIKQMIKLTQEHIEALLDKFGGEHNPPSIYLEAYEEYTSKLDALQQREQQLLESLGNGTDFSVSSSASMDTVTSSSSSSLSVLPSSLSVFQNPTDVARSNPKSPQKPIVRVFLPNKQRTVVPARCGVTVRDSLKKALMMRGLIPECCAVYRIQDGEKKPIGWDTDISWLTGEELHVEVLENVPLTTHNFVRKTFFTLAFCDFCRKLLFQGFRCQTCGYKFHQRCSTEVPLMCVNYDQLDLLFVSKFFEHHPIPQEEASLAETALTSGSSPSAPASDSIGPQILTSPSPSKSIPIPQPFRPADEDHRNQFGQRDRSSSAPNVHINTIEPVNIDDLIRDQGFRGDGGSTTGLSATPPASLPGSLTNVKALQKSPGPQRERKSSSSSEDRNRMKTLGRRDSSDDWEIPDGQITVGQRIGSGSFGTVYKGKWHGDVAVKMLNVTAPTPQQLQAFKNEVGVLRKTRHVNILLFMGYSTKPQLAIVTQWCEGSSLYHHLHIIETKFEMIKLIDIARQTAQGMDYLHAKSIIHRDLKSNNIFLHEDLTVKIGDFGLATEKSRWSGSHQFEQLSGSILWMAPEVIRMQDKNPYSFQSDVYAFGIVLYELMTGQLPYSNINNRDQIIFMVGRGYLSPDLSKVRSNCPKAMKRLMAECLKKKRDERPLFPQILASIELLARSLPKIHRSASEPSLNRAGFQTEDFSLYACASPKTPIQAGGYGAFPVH
PROTOCOL_TEXT: BRAF^V600E inhibitory assay
CONDITION_SUMMARY: read-out: BRAF^V600E Inhibition IC50 ± SEM
The label Fulfilled is reserved for IC50 strictly under 100 nM; Not fulfilled covers values equal to or above it.

{"columns": ["COMPOUND", "CLASS_LABEL"],
 "data": [
  ["CCOC(=O)/C=C1/S/C(=N/N=C2\\C(=O)Nc3ccccc32)NC1=O [Compound 12f]", "Not fulfilled"],
  ["c1ccc(-c2csc(NN=C3CCCCCCC3)n2)cc1", "Fulfilled"]
]}

Strictly below 100 nM in IC50? O=C1Nc2ccccc2/C1=N/Nc1nc(-c2ccccc2)cs1
Not fulfilled

A record lists CCOC(=O)/C=C1/S/C(=N/N=C2c3ccccc3-c3ccccc32)NC1=O [Compound 12e] . Is its IC50 below 100 nM?
Not fulfilled

* * *

Catalogue of viability at 96 h, 50 µM values
PROTOCOL_TEXT: Cell viability assay (MTT)
CONDITION_SUMMARY: human, MCF-10A mammary gland epithelial cells
Provide only the numeric value, understood in %.

{"columns": ["MOLECULE", "viability at 96 h, 50 µM / %"],
 "data": [
  ["O=C1Nc2ccccc2/C1=N/Nc1nc(-c2ccccc2)cs1", 92],
  ["c1ccc(-c2csc(NN=C3c4ccccc4-c4ccccc43)n2)cc1", 93],
  ["c1ccc(-c2csc(NN=C3CCCC3)n2)cc1", 90],
  ["CCOC(=O)/C=C1/S/C(=N/N=C2\\CCCc3ccccc32)NC1=O [Compound 12d]", 90]
]}

Consider the additional molecule presented here.
Param item = CCOC(=O)/C=C1/S/C(=N/N=C2CCCC2)NC1=O [Compound 12a] ; retrieve measured viability at 96 h, 50 µM.
91

* * *

Measured pIC50, listed per entry for reference.
TARGET: EGFR (Homo sapiens)
Sequence (P00533 669-1210): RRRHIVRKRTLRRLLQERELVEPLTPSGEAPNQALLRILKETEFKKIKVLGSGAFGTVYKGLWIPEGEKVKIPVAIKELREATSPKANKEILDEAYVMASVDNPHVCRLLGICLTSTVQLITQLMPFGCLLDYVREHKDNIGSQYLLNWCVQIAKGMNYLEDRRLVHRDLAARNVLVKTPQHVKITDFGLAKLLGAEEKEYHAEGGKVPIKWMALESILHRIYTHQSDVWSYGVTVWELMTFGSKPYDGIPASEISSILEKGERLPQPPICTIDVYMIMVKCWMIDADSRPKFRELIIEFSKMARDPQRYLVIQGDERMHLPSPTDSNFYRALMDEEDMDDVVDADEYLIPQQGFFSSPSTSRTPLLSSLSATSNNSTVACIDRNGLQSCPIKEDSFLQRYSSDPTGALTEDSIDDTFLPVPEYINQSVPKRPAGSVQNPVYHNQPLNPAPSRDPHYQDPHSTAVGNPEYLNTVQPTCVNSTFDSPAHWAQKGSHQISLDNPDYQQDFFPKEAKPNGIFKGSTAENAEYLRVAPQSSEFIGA
PROTOCOL_TEXT: EGFR inhibitory assay
Schema: pIC50 number; meaning minus log10 of the concentration expressed in molar units.

Worked cases, pIC50 given:
{"columns": ["COMPOUND", "EXPERIMENTAL_VALUE"],
 "data": [
  ["CCOC(=O)/C=C1/S/C(=N/N=C2\\C(=O)Nc3ccccc32)NC1=O [Compound 12f]", 7.00],
  ["O=C1Nc2ccccc2/C1=N/Nc1nc(-c2ccccc2)cs1", 7.01],
  ["c1ccc(-c2csc(NN=C3CCCCCCC3)n2)cc1", 7.07],
  ["CCOC(=O)/C=C1/S/C(=N/N=C2\\CCCc3ccccc32)NC1=O [Compound 12d]", 7.05]
]}

Turning now to a further compound:
For the compound shown here, CCOC(=O)/C=C1/S/C(=N/N=C2c3ccccc3-c3ccccc32)NC1=O [Compound 12e] , give the reported pIC50.
7.04

* * *

Tested on: colon cancer (HT-29) cell line
PROTOCOL_TEXT: Antiproliferative assay, HT-29
CONDITION_SUMMARY: Homo sapiens, HT-29, read-out: Antiproliferative Activity IC50 ± SEM, HT-29
IC50 reference
Supply the numeric figure in nM, leaving out any unit text.

{"columns": ["COMPOUND", "UNIT_NAME", "EXPERIMENTAL_VALUE"],
 "data": [
  ["CCOC(=O)/C=C1/S/C(=N/N=C2\\C(=O)Nc3ccccc32)NC1=O [Compound 12f]", "nM", 46],
  ["c1ccc(-c2csc(NN=C3c4ccccc4-c4ccccc43)n2)cc1", "nM", 50],
  ["CCOC(=O)/C=C1/S/C(=N/N=C2c3ccccc3-c3ccccc32)NC1=O [Compound 12e]", "nM", 42]
]}

Suppose we examine the compound CCOC(=O)/C=C1/S/C(=N/N=C2\CCCc3ccccc32)NC1=O [Compound 12d] ; what IC50 value has been reported?
38

Fill in the blank: the reported IC50 of c1ccc(-c2csc(N/N=C3\CCCc4ccccc43)n2)cc1 is ____.
58

So what's the measured IC50 for this one? c1ccc(-c2csc(NN=C3CCCCCCC3)n2)cc1
34

Fill in: IC50 of c1ccc(-c2csc(NN=C3CCCC3)n2)cc1 is ___
78

Recorded IC50 for CCOC(=O)/C=C1/S/C(=N/N=C2CCCCC2)NC1=O [Compound 12b] , please?
66
